# maps each entry to its furin cleavage Z-score
# target-system: furin, P09958;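 note: purified furin at 1:10 enzyme:substrate in 50 mM HEPES pH 7.5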
# Sequence (P09958 whole entry): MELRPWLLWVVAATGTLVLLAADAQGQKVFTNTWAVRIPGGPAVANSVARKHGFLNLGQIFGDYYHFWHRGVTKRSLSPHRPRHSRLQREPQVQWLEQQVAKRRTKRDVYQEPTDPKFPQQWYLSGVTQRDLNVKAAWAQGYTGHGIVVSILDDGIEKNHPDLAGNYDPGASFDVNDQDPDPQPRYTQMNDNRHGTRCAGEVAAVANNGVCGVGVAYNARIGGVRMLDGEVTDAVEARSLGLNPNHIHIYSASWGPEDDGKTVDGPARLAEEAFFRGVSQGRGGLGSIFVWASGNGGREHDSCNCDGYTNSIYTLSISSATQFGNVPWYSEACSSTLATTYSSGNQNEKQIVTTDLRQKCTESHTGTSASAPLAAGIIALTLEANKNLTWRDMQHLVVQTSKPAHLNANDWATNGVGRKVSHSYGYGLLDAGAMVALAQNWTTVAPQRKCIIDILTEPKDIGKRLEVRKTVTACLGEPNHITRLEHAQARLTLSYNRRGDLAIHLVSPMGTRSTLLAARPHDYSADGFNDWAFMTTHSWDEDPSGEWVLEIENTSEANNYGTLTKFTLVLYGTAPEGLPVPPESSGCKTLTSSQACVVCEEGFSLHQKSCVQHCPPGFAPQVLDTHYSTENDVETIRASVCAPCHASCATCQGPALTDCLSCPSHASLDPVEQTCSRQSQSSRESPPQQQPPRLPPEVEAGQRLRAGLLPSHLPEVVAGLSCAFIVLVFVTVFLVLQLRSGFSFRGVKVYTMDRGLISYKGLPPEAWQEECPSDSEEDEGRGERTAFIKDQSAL
# assay-text: furin cleavage Z-score vs untreated control; higher = more cleavage, active = 3.5 or more, inactive = 1 or less, 8 variable residues between constant flanks
# measurement-setup: 30 min
Some of the results follow. No count for the full screen is at hand.
Form: value (number only, do not type unit).

CAQYLAGLSTAGNASASA [HC1047]: 1.23

Return value of furin cleavage Z-score for input CAMEECSGHLAGNASASA [HC1736] , no commentary.
1.12

Return value of furin cleavage Z-score for input CAWFGCTWMNAGNASASA [HC435] , no commentary.
1.37
